B1: HDV Ribozyme (parent)
chain: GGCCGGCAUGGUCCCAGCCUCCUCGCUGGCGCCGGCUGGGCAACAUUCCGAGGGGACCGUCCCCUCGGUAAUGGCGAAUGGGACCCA

variants of: B1; assay: self-cleavage, relative activity (ratio to wild type); higher = more cleavage; co-transcriptional
Here the recorded self-cleavage is given for each entry.
Please give the numeric answer without any surrounding text.

| mutant.name | self-cleavage |
| --- | --- |
| G34A U69C | 0.291 |

self-cleavage lookup needed for C3U A87G , thanks. 0.752

self-cleavage lookup needed for G31A C61G , thanks. 0.401
